Target: T1, biotinylated CD3 epsilon:delta heterodimer protein (Amsbio AMS.CDD-H52WO) (Homo sapiens (Human), UniProt P07766 23-126; P04234 22-105)
T1 construct: also called CD3 heterodimer
Experiment: BLI (Octet), CD3 on SA sensor, Fab analyte;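 note: biolayer interferometry with biotinylated CD3 epsilon:delta captured on streptavidin sensors, Fab analyte at several concentrations up to 300 nM, 100 s association then 300 s dissociation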
measurement.name: Kd (nM)
All answers are understood in nM, so give the number only.

huSP34.7.4 Fab-HF (Fab, V domains shown, also called HC7+LC4) VH: EVQLVESGGGLVQPGGSLRLSCAASGFTFSDYAMNWVRQAPGKGLEWVGRTRSKYNNYATYYAASVKGRFTISRDDSKNSLYLQMNSLKTEDTAVYYCVRHGNFGNSYVSWFAVWGQGTLVTVSS VL: QAVVTQEPSLTVSPGGTVTLTCGSSTGAVTTSHYANWVQQKPGQAPRGLIGGTSKRAPWTPARFSGSLLGGKAALTLSGAQPEDEAEYYCALWYSALWVFGGGTKLTVL | 4180

Shifting focus to the binder that follows.
## Input Name the recorded Kd of the binder listed here: huSP34.2.1 Fab-HF (Fab, V domains shown, also called HC2+LC1) VH: EVQLVESGGGLVQPGGSLRLSCAASGFTFSTYAMNWVRQAPGKGLEWVGRIRSKYNNYATYYAASVKGRFTISRDDSKNSLYLQMNSLKTEDTAMYYCVRHGNFGNSYVSWFAVWGQGTLVTVSS VL: QAVVTQEPSLTVSPGGTVTLTCRSSTGAVTTSNYANWVQQKPGQAPRGLIGGTNKRAPWTPARFSGSLIGDKAALTLSGAQPEDEAEYYCALWYSNLWVFGGGTKLTVL
## Output 24.6
